Taken from ChEMBL document CHEMBL4725449.

Experiment: Tmax in Sprague-Dawley rat at 3 mg/kg, po
Assay type: ADME, organism-based
Conditions: in vivo
valueKind: Tmax (min)

> print(dat)
                             smilesnotation  endpointvalue
1  CNC(=O)c1csc2c(C(F)(F)F)cc(N3CCC(OC(=O)N[C@@H](C)COC(F)(F)F)CC3)nc12           49.8

* * *

Molecular target: 2-hydroxyacylsphingosine 1-beta-galactosyltransferase (Mus musculus, UniProt Q64676)
Sequence (Q64676 whole entry): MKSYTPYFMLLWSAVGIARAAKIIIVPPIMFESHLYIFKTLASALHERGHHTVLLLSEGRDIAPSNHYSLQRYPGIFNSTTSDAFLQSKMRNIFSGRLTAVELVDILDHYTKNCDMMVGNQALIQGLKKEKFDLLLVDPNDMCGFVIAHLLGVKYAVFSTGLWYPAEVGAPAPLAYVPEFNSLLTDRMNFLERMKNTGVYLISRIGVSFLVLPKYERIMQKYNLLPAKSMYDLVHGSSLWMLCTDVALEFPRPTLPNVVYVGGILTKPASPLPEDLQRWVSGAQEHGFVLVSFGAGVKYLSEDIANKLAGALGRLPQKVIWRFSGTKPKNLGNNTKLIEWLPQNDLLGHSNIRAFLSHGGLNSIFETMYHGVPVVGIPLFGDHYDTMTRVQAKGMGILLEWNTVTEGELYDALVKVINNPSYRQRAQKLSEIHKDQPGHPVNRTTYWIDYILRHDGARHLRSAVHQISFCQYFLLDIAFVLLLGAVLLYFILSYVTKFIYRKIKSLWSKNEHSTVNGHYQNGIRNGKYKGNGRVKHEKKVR
Assay: Inhibition of mouse UGT8 assessed as redcution in SFT accumulation
pIC50: −log10 of the molar value.
valueKind: pIC50

> print(dat)
                             smilesnotation  endpointvalue
1  CNC(=O)c1csc2c(C(F)(F)F)cc(N3CCC(OC(=O)N[C@@H](C)COC(F)(F)F)CC3)nc12           9.52
